- measured target: T1, Human CD138 His (Homo sapiens, UniProt P18827)
- T1 construct: His
- T1 sequence (P18827 23-310): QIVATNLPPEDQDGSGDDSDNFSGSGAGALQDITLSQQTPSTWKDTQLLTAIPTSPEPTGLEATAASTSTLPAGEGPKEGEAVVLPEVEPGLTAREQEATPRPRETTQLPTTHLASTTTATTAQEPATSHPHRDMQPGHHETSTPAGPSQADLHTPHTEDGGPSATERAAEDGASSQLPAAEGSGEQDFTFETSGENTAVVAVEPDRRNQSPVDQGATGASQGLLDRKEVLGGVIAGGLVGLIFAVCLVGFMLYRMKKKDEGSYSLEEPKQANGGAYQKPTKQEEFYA
- experimental protocol: SPR kinetic binding, human CD138
- experimental context: bivalent analyte fit
Each entry below carries its recorded hCD138 kd.
endpoint name: hCD138 kd

{"columns": ["molecule", "endpoint name", "experimental value"],
 "data": [
  ["F12P7G11: murine anti-CD138 hybridoma antibody; VH SEQ ID NO:85, VL SEQ ID NO:37 (antibody, listed as Mus musculus, V domains shown) VH: QVQLQQSGAELARPGASVKLSCKASGYTFSSHWMQWVKQRPGQGLEWIGAIYPGDGDTRFTQKFKGKATLTADKSSNTAYMQLSSLASEDSAVYYCARGIYYDRSRAMDYWGQGTSVTVSS VL: QIVLSQSPAILSASPGEKVTMTCRASSSVNYMHWYQQKPGSSPKHWIYATSYLASGVPARFSGSGSGTSYSLTISRVEAEDAATYYCQQWSSDPLTFGAGTKLELKR", "hCD138 kd", "0.033 s⁻¹"],
  ["F13P18D8: murine anti-CD138 hybridoma antibody; VH SEQ ID NO:84, VL SEQ ID NO:36 (antibody, listed as Mus musculus, V domains shown) VH: EVQLLESGGGLVQPEGSLKLSCAASGFAFNTYAMNWVRQAPGKGLEWLARIRSKSNNYATYYADSVKDRFTISRDDSQGMLYLQMNNLKTEDTAMYYCVTDYYYVYFDVWGAGTTVTVSS VL: NIVMTQSPKSMSMSVGERVTLSCKASENVGTYVSWYQQKSDQSPKLLIYGASNRYTGVPDRFTGSGSATDFTLTITSVQSEDLADYHCGQSSRYPLTFGAGTKLELKR", "hCD138 kd", "0.000523 s⁻¹"],
  ["F11AP11E5: murine anti-CD138 hybridoma antibody; VH SEQ ID NO:87, VL SEQ ID NO:39 (antibody, listed as Mus musculus, V domains shown) VH: QVQLQQSGAELVKPGASVKLSCKASGYTFTNYYMYWVKQRPGQGLEWIGEINPGNGGTNFNEKFKNKATLTVDKSSSTAYMQLSSLTSEDSAVYYCTTRFAYWGQGTLVIVSA VL: DVVMTQTPLSLSVTIGQPASISCKSGQSLLYSNGKTYLTWLQQRPGQAPKLLMYQVSKLDPGIPDRFSGSGSETDFTLKISRVEAEDLGVYYCLQNTYYPHTFGAGTKLELKR", "hCD138 kd", "0.0117 s⁻¹"],
  ["F13P14D3: murine anti-CD138 hybridoma antibody; VH SEQ ID NO:86, VL SEQ ID NO:38 (antibody, listed as Mus musculus, V domains shown) VH: EVQLVESGGGLVQPKGSLKLSCATSGFTFNTYAMNWVRQAPGKGLEWVARIRSKSNNYATYYVDSVKDRFTISRDDSQSTVHLQMNNLKTEDTAIYYCVTDYGHVYFDVWGAGTTVTVSS VL: NIVMTQSPKSMSMSVGQRVTLSCKASENVGSYVSWYQQKPEQSPKLLIYGASNRNTGVPDRFTGSGSATDFTLTISSVQAEDLADYHCGQSSRYPLTFGGGTKLELKR", "hCD138 kd", "0.00104 s⁻¹"],
  ["F13P30A7: murine anti-CD138 hybridoma antibody; VH SEQ ID NO:83, VL SEQ ID NO:35 (antibody, listed as Mus musculus, V domains shown) VH: EVQLVESGGGLVQPKGSLKLSCAASGFTFNTYAMNWVRQAPGKGLEWIARIRSKSNNYATYYADSVKDRFTISRDDSQSLLYLQMNNLKTEDTAIFYCVTDYGYVYFDAWGAGTTVTVSS VL: NIIMTQSPKSMAMSVGERVTLSCKASENVGNYVSWYQQKPEQSPKLLIYGASYRYTGVPDRFTGSGSGTDFTLTISSVQAEDLADYHCGQSSRYPLTFGAGTKLELKR", "hCD138 kd", "0.00127 s⁻¹"]
]}
